Would you mind telling me the reported protein stability index of each entry?
B1: ANKRD40 (parent)
chain: VRIQNPSLRENDFIEIELDRQELT

variants of: B1; assay: protein stability index of a GFP-peptide fusion (GPS, HEK-293T) (PSI 1-6); higher = more stable; conditions: c terminus: a fixed tail appended;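 further: lentivirally expressed fusions sorted by FACS into six bins by GFP to DsRed ratio, PSI derived from sequencing read proportions per bin multiplied by bin number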
Give bare numbers.

R20K; 2.75
L8E; 3.34
S7V; 2.81
E17T; 1.86
V1G; 4.27

Please supply protein stability index for each of the following items, keeping them in order.
1. V1W
2. N5L
3. R20L
4. R20A
5. I3V
6. Q21H

Response given:
1. 2.99
2. 3.56
3. 2.81
4. 2.31
5. 3.06
6. 2.12
